The entries below come with measured melting point values attached.

Below: 3 compounds and their reported melting point.
• COC(=O)c1ccccc1SCC#N = 121 to 124 °C
• CSc1nc2ccc([N+](=O)[O-])cc2s1 = 134 to 136 °C
• CCOC(=O)C1CCN(c2cc(C#N)ccn2)CC1 = 51 to 53 °C

For the next question, use this compound.
Which measured melting point value corresponds to `FC(F)(F)c1cc(Cl)c2cc(CBr)ccc2n1` ?
119 to 123 °C

###

The entries below come with measured melting point values attached.
Dear colleague, please return just the value in °C, with no unit written.

Below: 6 compounds and their reported melting point.
* O=S(=O)(O)c1ccc2ccccc2c1 | 91
* CCCCCC(=O)Cc1cc(O)cc2c1C(=O)Oc1cc(O)c(C(=O)O)c(CCCCC)c1O2 | 205
* O=[N+]([O-])c1ccc(OC(F)F)cc1 | 34
* Cc1cccnc1NC(=O)C(C(F)(F)F)C(F)(F)F | 181
* CC1CCC(C(C)C)C(OC(=O)C(C(=O)c2ccccc2)c2ccccc2)C1 (stereo unspecified) | 115
* O=C(Cc1ccccc1)C(Cc1ccccc1)=NNc1ccccc1 | 137

Which measured melting point value corresponds to `Cc1cccc(/N=N/c2c(N)nn3c(-c4ccccc4)cc(=O)[nH]c23)c1` ?
296

Which measured melting point value corresponds to `COc1cc(C=O)c([N+](=O)[O-])cc1OC` ?
133

Which measured melting point value corresponds to `COC(=O)C=CC(C)=CC=CC(C)=CC=CC=C(C)C=CC=C(C)C=CC(=O)O` ?
198

Which measured melting point value corresponds to `Cc1c(C)c([N+](=O)[O-])c(C(C)(C)C)c([N+](=O)[O-])c1C` ?
136

###

REPORTED_PROPERTY: melting point

* C=C1C2CCC3(O)C4(C)CCCC(C)(C(=O)OC5OC(CO)C(O)C(O)C5O)C4CCC3(C2)C1O (stereo not given) | 218 to 220 °C
* CN1CCN(c2ccccc2C(=O)O)CC1 | 67 to 72 °C
* O=C1CCc2cccc(O)c2C1 | 156 to 157 °C

Which measured melting point value corresponds to `Cc1ccc(Cl)cc1NC(N)=S` ?
160 to 161 °C

Which measured melting point value corresponds to `Cc1nn(C)c(Cl)c1C(=O)O` ?
195 to 198 °C

Which measured melting point value corresponds to `OCc1cccc(Cl)c1Cl` ?
88 to 94 °C

Which measured melting point value corresponds to `C[C@H](O)C(N)=O` ?
51 to 55 °C

###

The entries below come with measured melting point values attached.

Below: 5 compounds and their reported melting point.
- O=C(Nc1ccc(O)cc1)c1ccccc1O: 179 °C
- c1ccc(OCc2ccc(CCCN3CCOCC3)cc2)cc1: 52.5 °C
- NC(=S)NN=C1C2CCCC1C1(O)CCCCC1C2c1ccccc1 (centres undefined): 205 °C
- COC1OC(COC(C)=O)C(OC2OC(COC(C)=O)C(OC(C)=O)C(OC(C)=O)C2OC(C)=O)C(OC(C)=O)C1OC(C)=O (centres undefined): 131 °C
- Clc1ccc(I)cc1Cl: 30 °C

Which measured melting point value corresponds to `N#Cc1cnc2ccccc2c1` ?
109 °C

Which measured melting point value corresponds to `O=C(O)c1ccc(F)c(F)c1` ?
122 to 125 °C

Which measured melting point value corresponds to `CC(=O)c1ccc(NC(=O)C(C(F)(F)F)(C(F)(F)F)C(F)(F)F)cc1` ?
223 to 225 °C

Which measured melting point value corresponds to `N#Cc1ccc(F)cc1F` ?
46 °C

Which measured melting point value corresponds to `C1CCN(C2CCNCC2)CC1` ?
68 °C

Which measured melting point value corresponds to `CCCCC(=O)CCCC` ?
-3.8 °C

Which measured melting point value corresponds to `Cc1ccccc1-c1cc2ccccc2c(=O)o1` ?
86 °C

Which measured melting point value corresponds to `FC(F)(F)c1n[nH]c(/N=C/c2ccc(Cl)cc2)n1` ?
233 °C

Which measured melting point value corresponds to `COc1ccc(C(=O)O)cc1I` ?
240 °C

Which measured melting point value corresponds to NC1=C(C(=O)Nc2ccccc2)C(c2ccc(Br)cc2)C2Oc3ccccc3C2O1 (centres undefined) ?
282 °C
